- Test Target: ETA receptor variant I355A (Homo sapiens, UniProt P25101, I355A)
- Sequence (P25101 21-427 I355A): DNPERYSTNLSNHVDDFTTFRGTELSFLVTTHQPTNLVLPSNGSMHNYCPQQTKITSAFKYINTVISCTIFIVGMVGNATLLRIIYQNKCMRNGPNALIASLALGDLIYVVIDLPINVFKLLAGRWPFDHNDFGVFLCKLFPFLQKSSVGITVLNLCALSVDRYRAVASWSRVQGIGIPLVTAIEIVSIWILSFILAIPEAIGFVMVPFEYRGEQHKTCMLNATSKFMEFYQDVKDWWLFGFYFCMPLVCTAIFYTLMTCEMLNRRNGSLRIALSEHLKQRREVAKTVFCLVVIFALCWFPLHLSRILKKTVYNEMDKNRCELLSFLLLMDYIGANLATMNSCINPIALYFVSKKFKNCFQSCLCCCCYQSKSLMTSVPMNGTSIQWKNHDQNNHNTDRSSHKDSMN
- Procedure Details: cell-based
pIC50: −log10 of the molar value.
Answer no (0) if pIC50 is under 8, and yes (1) if it is 8 or more.

>  <Structure Notation>
CCCNS(=O)(=O)Nc1ncnc(OCCOc2ncc(Br)cn2)c1-c1ccc(Br)cc1

>  <Classification>
yes (1)

$$$$
>  <Structure Notation>
CCNS(=O)(=O)Nc1ncnc(OCCOc2ncc(Br)cn2)c1-c1ccc(Br)cc1

>  <Classification>
yes (1)

$$$$
>  <Structure Notation>
CCCCNS(=O)(=O)Nc1ncnc(OCCOc2ncc(Br)cn2)c1-c1ccc(Br)cc1

>  <Classification>
yes (1)

$$$$
>  <Structure Notation>
COc1ccccc1Oc1c(NS(=O)(=O)c2ccc(C)cn2)nc(-c2ccnc(-c3nnn[nH]3)c2)nc1OCCO

>  <Classification>
yes (1)

$$$$
>  <Structure Notation>
CCCNS(=O)(=O)Nc1ncnc(OCCOc2ncc(OC)cn2)c1-c1ccc(Br)cc1

>  <Classification>
no (0)

$$$$

----------
- Test Target: ETA receptor (Homo sapiens)
- Sequence (P25101 21-427): as the sequence (P25101 21-427 I355A) above, with A335I counted along it
- Procedure Details: cell-based
- Recorded Conditions: log IC50 (M), calcium flux, PASMC, 4 nM–[…] nM ET-1 (EC80)
Square brackets hold non-standard residues; d marks the D form. Peptide text beside a SMILES is read from it.

>  <Molecule>
CC(C)C[C@@H]1NC(=O)[C@@H](C(C)C)NC(=O)[C@@H]2CCCN2C(=O)[C@@H](CC(=O)O)NC(=O)[C@@H](Cc2c[nH]c3ccccc23)NC1=O [BQ123] (cyclo(L[dW][dD]P[dV]))

>  <IC50 [M]>
1.26e-09

$$$$

----------
- Test Target: ETA receptor (Homo sapiens)
- Procedure Details: cell-based
pIC50: −log10 of the molar value.
Property: pIC50

>  <Structure Notation>
CCCNS(=O)(=O)Nc1ncnc(OCCOc2ncc(I)cn2)c1-c1ccc(Br)cc1

>  <Test Target>
ETA receptor (Homo sapiens)

>  <Experimental Result>
10.19

$$$$
>  <Structure Notation>
CCCCNS(=O)(=O)Nc1ncnc(OCCOc2ncc(Br)cn2)c1-c1ccc(Br)cc1

>  <Test Target>
ETA receptor (Homo sapiens)

>  <Experimental Result>
10.03

$$$$
>  <Structure Notation>
COC(c1ccccc1)(c1ccccc1)[C@H](Oc1nc(C)cc(C)n1)C(=O)O

>  <Test Target>
ETA receptor (Homo sapiens)

>  <Experimental Result>
9.36

$$$$
>  <Structure Notation>
CCCNS(=O)(=O)Nc1ncnc(OCCOc2ccc(Br)cc2)c1-c1ccc(Br)cc1

>  <Test Target>
ETA receptor (Homo sapiens)

>  <Experimental Result>
6.37

$$$$
>  <Structure Notation>
CCCNS(=O)(=O)Nc1ncnc(OCCOc2ncc(Br)cn2)c1-c1ccc(Br)cc1

>  <Test Target>
ETA receptor (Homo sapiens)

>  <Experimental Result>
9.77

$$$$
>  <Structure Notation>
CCCS(=O)(=O)Nc1ncnc(OCCOc2ncc(Br)cn2)c1-c1ccc(Br)cc1

>  <Test Target>
ETA receptor (Homo sapiens)

>  <Experimental Result>
9.42

$$$$
>  <Structure Notation>
CCCNS(=O)(=O)Nc1ncnc(OCCCCOc2ncc(Br)cn2)c1-c1ccc(Br)cc1

>  <Test Target>
ETA receptor (Homo sapiens)

>  <Experimental Result>
6.59

$$$$
>  <Structure Notation>
CCNS(=O)(=O)Nc1ncnc(OCCOc2ncc(Br)cn2)c1-c1ccc(Br)cc1

>  <Test Target>
ETA receptor (Homo sapiens)

>  <Experimental Result>
9.29

$$$$
>  <Structure Notation>
COc1ccccc1Oc1c(NS(=O)(=O)c2ccc(C)cn2)nc(-c2ccnc(-c3nnn[nH]3)c2)nc1OCCO

>  <Test Target>
ETA receptor (Homo sapiens)

>  <Experimental Result>
10.48

$$$$
>  <Structure Notation>
CCCCS(=O)(=O)Nc1ncnc(OCCOc2ncc(Br)cn2)c1-c1ccc(Br)cc1

>  <Test Target>
ETA receptor (Homo sapiens)

>  <Experimental Result>
9.21

$$$$
>  <Structure Notation>
CCS(=O)(=O)Nc1ncnc(OCCOc2ncc(Br)cn2)c1-c1ccc(Br)cc1

>  <Test Target>
ETA receptor (Homo sapiens)

>  <Experimental Result>
8.92

$$$$
>  <Structure Notation>
O=S(=O)(NCc1ccccc1)Nc1ncnc(OCCOc2ncc(Br)cn2)c1-c1ccc(Br)cc1

>  <Test Target>
ETA receptor (Homo sapiens)

>  <Experimental Result>
10.07

$$$$
>  <Structure Notation>
CCCNS(=O)(=O)Nc1ncnc(OCCCOc2ncc(Br)cn2)c1-c1ccc(Br)cc1

>  <Test Target>
ETA receptor (Homo sapiens)

>  <Experimental Result>
7.46

$$$$
>  <Structure Notation>
CCCNS(=O)(=O)Nc1ncnc(OCCOc2ncc(OC)cn2)c1-c1ccc(Br)cc1

>  <Test Target>
ETA receptor (Homo sapiens)

>  <Experimental Result>
8.41

$$$$
>  <Structure Notation>
CCCNS(=O)(=O)Nc1ncnc(OCCOc2ncc(Br)cn2)c1-c1ccc(Cl)cc1

>  <Test Target>
ETA receptor (Homo sapiens)

>  <Experimental Result>
9.33

$$$$
>  <Structure Notation>
COc1ccccc1Oc1c(NS(=O)(=O)c2ccc(C(C)C)cn2)nc(-c2ccnc(-c3nnn[nH]3)c2)nc1OCCO

>  <Test Target>
ETA receptor (Homo sapiens)

>  <Experimental Result>
10.28

$$$$

----------
Measured IC50 shift versus wildtype (fold), listed per entry.
- Test Target: ETA receptor variant R326Q (Homo sapiens, UniProt P25101, R326Q)
- Sequence (P25101 21-427 R326Q): as the sequence (P25101 21-427 I355A) above, with R306Q, A335I counted along it

>  <Molecule>
COC(c1ccccc1)(c1ccccc1)[C@H](Oc1nc(C)cc(C)n1)C(=O)O [ambrisentan]

>  <IC50 shift versus wildtype (fold)>
317

$$$$
>  <Molecule>
CCCNS(=O)(=O)Nc1ncnc(OCCOc2ncc(OC)cn2)c1-c1ccc(Br)cc1 [macitentan analog 7]

>  <IC50 shift versus wildtype (fold)>
6.5

$$$$
>  <Molecule>
CCCCNS(=O)(=O)Nc1ncnc(OCCOc2ncc(Br)cn2)c1-c1ccc(Br)cc1 [macitentan analog 1]

>  <IC50 shift versus wildtype (fold)>
7.1

$$$$
>  <Molecule>
CCNS(=O)(=O)Nc1ncnc(OCCOc2ncc(Br)cn2)c1-c1ccc(Br)cc1 [macitentan analog 2]

>  <IC50 shift versus wildtype (fold)>
7.1

$$$$
>  <Molecule>
CCCNS(=O)(=O)Nc1ncnc(OCCOc2ncc(Br)cn2)c1-c1ccc(Br)cc1 [macitentan]

>  <IC50 shift versus wildtype (fold)>
6.3

$$$$
>  <Molecule>
COc1ccccc1Oc1c(NS(=O)(=O)c2ccc(C(C)C)cn2)nc(-c2ccnc(-c3nnn[nH]3)c2)nc1OCCO [tezosentan]

>  <IC50 shift versus wildtype (fold)>
50

$$$$
>  <Molecule>
COc1ccccc1Oc1c(NS(=O)(=O)c2ccc(C)cn2)nc(-c2ccnc(-c3nnn[nH]3)c2)nc1OCCO [clazosentan]

>  <IC50 shift versus wildtype (fold)>
26

$$$$
>  <Molecule>
CCCNS(=O)(=O)Nc1ncnc(OCCOc2ncc(Br)cn2)c1-c1ccc(Cl)cc1 [macitentan analog 9]

>  <IC50 shift versus wildtype (fold)>
3.3

$$$$

----------
- Test Target: ETA receptor variant Q165A (Homo sapiens, UniProt P25101, Q165A)
- Sequence (P25101 21-427 Q165A): as the sequence (P25101 21-427 I355A) above, with Q145A, A335I counted along it
- Procedure Details: cell-based
pIC50: −log10 of the molar value.
Measured pIC50, listed per entry.

>  <Compound>
COC(c1ccccc1)(c1ccccc1)[C@H](Oc1nc(C)cc(C)n1)C(=O)O [ambrisentan]

>  <Test Target>
ETA receptor variant Q165A (Homo sapiens, UniProt P25101, Q165A)

>  <pIC50>
5.50

$$$$
>  <Compound>
CCCNS(=O)(=O)Nc1ncnc(OCCOc2ncc(Br)cn2)c1-c1ccc(Br)cc1 [macitentan]

>  <Test Target>
ETA receptor variant Q165A (Homo sapiens, UniProt P25101, Q165A)

>  <pIC50>
6.68

$$$$

----------
- Test Target: ETA receptor variant L322A (Homo sapiens, UniProt P25101, L322A)
- Sequence (P25101 21-427 L322A): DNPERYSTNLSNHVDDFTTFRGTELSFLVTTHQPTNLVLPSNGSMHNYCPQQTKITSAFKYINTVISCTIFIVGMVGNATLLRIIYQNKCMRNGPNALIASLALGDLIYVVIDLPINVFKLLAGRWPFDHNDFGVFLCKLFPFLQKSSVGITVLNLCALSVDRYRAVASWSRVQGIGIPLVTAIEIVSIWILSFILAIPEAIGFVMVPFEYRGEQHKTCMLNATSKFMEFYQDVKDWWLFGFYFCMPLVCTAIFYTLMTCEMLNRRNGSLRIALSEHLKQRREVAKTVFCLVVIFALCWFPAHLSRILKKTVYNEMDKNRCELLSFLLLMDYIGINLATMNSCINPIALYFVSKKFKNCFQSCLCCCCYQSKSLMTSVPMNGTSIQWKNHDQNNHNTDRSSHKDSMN
- Procedure Details: cell-based
pIC50: −log10 of the molar value.
Property: pIC50

>  <Structure Notation>
CCCNS(=O)(=O)Nc1ncnc(OCCOc2ncc(Br)cn2)c1-c1ccc(Br)cc1

>  <Experimental Result>
6.75

$$$$
>  <Structure Notation>
CCCNS(=O)(=O)Nc1ncnc(OCCOc2ncc(OC)cn2)c1-c1ccc(Br)cc1

>  <Experimental Result>
5.57

$$$$
>  <Structure Notation>
COC(c1ccccc1)(c1ccccc1)[C@H](Oc1nc(C)cc(C)n1)C(=O)O

>  <Experimental Result>
7.39

$$$$
>  <Structure Notation>
CCNS(=O)(=O)Nc1ncnc(OCCOc2ncc(Br)cn2)c1-c1ccc(Br)cc1

>  <Experimental Result>
5.96

$$$$

----------
Observed IC50 shift versus wildtype (fold), system ETA receptor variant I355A (Homo sapiens, UniProt P25101, I355A).

>  <Compound>
CCCCNS(=O)(=O)Nc1ncnc(OCCOc2ncc(Br)cn2)c1-c1ccc(Br)cc1 [macitentan analog 1]

>  <IC50 shift versus wildtype (fold)>
0.3 fold

$$$$
>  <Compound>
COc1ccccc1Oc1c(NS(=O)(=O)c2ccc(C(C)C)cn2)nc(-c2ccnc(-c3nnn[nH]3)c2)nc1OCCO [tezosentan]

>  <IC50 shift versus wildtype (fold)>
54 fold

$$$$
>  <Compound>
COc1ccccc1Oc1c(NS(=O)(=O)c2ccc(C)cn2)nc(-c2ccnc(-c3nnn[nH]3)c2)nc1OCCO [clazosentan]

>  <IC50 shift versus wildtype (fold)>
32 fold

$$$$
>  <Compound>
CCNS(=O)(=O)Nc1ncnc(OCCOc2ncc(Br)cn2)c1-c1ccc(Br)cc1 [macitentan analog 2]

>  <IC50 shift versus wildtype (fold)>
0.8 fold

$$$$
>  <Compound>
COC(c1ccccc1)(c1ccccc1)[C@H](Oc1nc(C)cc(C)n1)C(=O)O [ambrisentan]

>  <IC50 shift versus wildtype (fold)>
2.9 fold

$$$$
